target: UniProt:Q9HBA0; assay: Test Example 3: measurement of TRPV4 inhibitory activity (Fluo-3, FDSS 3000, 4α-PDD); format: cell-based; conditions: hTRPV4/CHO cells, calculated from IC50 and 4α-PDD EC50
Sequence (Q9HBA0 whole entry): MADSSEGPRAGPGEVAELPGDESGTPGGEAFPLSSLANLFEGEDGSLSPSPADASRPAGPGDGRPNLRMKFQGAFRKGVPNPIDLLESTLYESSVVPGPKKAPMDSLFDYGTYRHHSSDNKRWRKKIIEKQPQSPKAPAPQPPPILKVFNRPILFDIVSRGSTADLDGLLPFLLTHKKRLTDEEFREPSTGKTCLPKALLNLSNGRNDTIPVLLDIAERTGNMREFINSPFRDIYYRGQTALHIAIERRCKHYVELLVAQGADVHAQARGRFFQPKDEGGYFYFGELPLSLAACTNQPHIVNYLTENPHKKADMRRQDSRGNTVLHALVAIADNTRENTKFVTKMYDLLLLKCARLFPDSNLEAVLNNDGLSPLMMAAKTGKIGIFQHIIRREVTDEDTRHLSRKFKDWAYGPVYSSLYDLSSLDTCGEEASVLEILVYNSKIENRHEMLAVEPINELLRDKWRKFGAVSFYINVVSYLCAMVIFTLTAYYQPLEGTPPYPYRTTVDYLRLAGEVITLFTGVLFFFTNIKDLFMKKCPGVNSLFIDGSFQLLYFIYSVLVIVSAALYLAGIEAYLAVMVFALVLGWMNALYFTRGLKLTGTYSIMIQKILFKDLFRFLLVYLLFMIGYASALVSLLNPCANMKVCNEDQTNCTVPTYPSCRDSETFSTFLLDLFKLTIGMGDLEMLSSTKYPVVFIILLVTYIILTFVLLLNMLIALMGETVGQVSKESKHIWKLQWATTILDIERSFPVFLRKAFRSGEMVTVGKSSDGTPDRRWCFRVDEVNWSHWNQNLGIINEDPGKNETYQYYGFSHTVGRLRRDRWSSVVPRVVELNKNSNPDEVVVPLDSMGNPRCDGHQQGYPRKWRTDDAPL
log10 Ki by entry:
outcomeMeasure: log10 Ki (log10 of the value in nM)

In [3]: df
Out[3]:
                                    compound  reported
 0  Cc1c(C(=O)Nc2cccc(C(F)(F)F)c2)cc(-c2ccccc2)n1CCCN(C)C(=O)c1csc(-c2ccccc2)n1 [Compound I-061]      3.23
 1  Cc1c(C(=O)Nc2nc3ccccc3s2)cc(-c2ccccc2)n1CCCN1CCOCC1 [Compound I-020]      3.00
 2  Cc1c(C(=O)Nc2cccc(C(F)(F)F)c2)cc(-c2ccccc2)n1CCCN(C)C(=O)c1ccc2occc2c1 [Compound I-058]      3.22
 3  Cc1c(C(=O)Nc2cccc(C(F)(F)F)c2)cc(-c2ccccc2)n1CCCN(C)CC1CC1 [Compound I-033]      2.82
 4  COCCOCC(=O)N(C)CCCn1c(-c2ccccc2)cc(C(=O)Nc2cccc(C(F)(F)F)c2)c1C [Compound I-050]      3.06
 5  Cc1c(C(=O)Nc2ccccc2C(F)(F)F)cc(-c2ccccc2)n1CCCN1CCOCC1 [Compound I-022]      3.39
 6  Cc1c(C(=O)Nc2cccc(C(F)(F)F)c2)cc(-c2ccccc2)n1CCCN(C)C(=O)c1cccc(N(C)C)c1 [Compound I-069]      2.91
 7  Cc1c(C(=O)Nc2cccc(C(F)(F)F)c2)cc(-c2ccccc2)n1CCCN(C)C(=O)OC(C)(C)C [Compound I-030]      2.85
 8  Cc1c(C(=O)Nc2cccc(C(F)(F)F)c2)cc(-c2ccccc2)n1CCCN(C)C(=O)c1cnc2ccccc2n1 [Compound I-066]      2.82
 9  Cc1c(NS(=O)(=O)c2cccc(C(F)(F)F)c2)cc(-c2ccccc2)n1CCCN1CCOCC1 [Compound I-080]      3.26
10  Cc1c(C(=O)Nc2cccc(Cl)c2)cc(-c2ccccc2)n1CCCN1CCOCC1 [Compound I-013]      2.66
11  CC(=O)Nc1ccc(C(=O)N(C)CCCn2c(-c3ccccc3)cc(C(=O)Nc3cccc(C(F)(F)F)c3)c2C)cc1 [Compound I-056]      2.75
12  Cc1c(C(=O)Nc2cccc(C(F)(F)F)c2)cc(-c2ccccc2)n1CCCN(C)C(=O)c1ccc2c(c1)OCO2 [Compound I-048]      3.12
13  Cc1c(C(=O)Nc2cccc(C(F)(F)F)c2)cc(-c2ccccc2)n1CCCN(CCO)CCO [Compound I-016]      2.28
14  Cc1c(C(=O)Nc2cccc(C(F)(F)F)c2)cc(-c2ccccc2)n1CCCN(C)C(=O)C1CCC1 [Compound I-059]      2.67
